Below are IC50 values recorded for Glycogen synthase kinase-3 alpha (Homo sapiens).
recorded-endpoint: IC50

- compound: "CC[C@]1(c2cccc(-c3ccnc4c3CCC4)c2)C2=C(CC(C)(C)NC2=O)NC2N=NC(C(F)(F)F)=C21 (stereo partly specified) [US20250313563, Compound 948769]"
  value-reported: "0.1 to 1 µM"
- compound: "CC[C@@]1(c2cccc(N3CCCC3)c2)C2=CN=NC2NC2=C1C(=O)CC(C)(C)C2 (stereo partly specified) [US20250313563, Compound 810510]"
  value-reported: "< 0.1 µM"
- compound: "CCc1cc(-c2cccc(C3(CC)C4=CN=NC4NC4=C3C(=O)CC(C)(C)C4)c2)cc(CC)n1 (stereo unspecified) [US20250313563, Compound 929445]"
  value-reported: "1 to 5 µM"
- compound: "CC[C@]1(c2cccc(C(F)(F)F)c2)C2=CN=NC2NC2=C1C(=O)CC(C)(C)C2 (stereo partly specified) [US20250313563, Compound 790754]"
  value-reported: "0.1 to 1 µM"
- compound: "CC1(C)CC(=O)C2=C(C1)NC1=C(CN=N1)C21CCN(S(=O)(=O)C2CCCCC2)CC1 [US20250313563, Compound 913128]"
  value-reported: "< 0.1 µM"
- compound: "CC[C@@]1(c2cccc(C(F)(F)F)c2)C2=CN=NC2NC2=C1C(=O)N(c1ccccc1)C2 (stereo partly specified) [US20250313563, Compound 945377]"
  value-reported: "0.1 to 1 µM"

###

measured-on: Glycogen synthase kinase-3 beta (Homo sapiens)
Sequence (P49841 whole entry): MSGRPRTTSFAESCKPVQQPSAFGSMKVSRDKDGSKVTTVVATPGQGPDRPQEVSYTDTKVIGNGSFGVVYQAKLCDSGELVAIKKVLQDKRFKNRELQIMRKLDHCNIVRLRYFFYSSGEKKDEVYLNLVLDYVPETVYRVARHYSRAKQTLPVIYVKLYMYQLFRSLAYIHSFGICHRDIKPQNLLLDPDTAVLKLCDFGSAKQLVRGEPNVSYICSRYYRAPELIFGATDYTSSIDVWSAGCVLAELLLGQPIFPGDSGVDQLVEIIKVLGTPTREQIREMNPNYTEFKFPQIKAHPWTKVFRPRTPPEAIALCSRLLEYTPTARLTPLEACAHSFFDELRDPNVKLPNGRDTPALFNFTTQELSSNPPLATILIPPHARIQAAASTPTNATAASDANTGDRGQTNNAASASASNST
method-notes: TR-FRET Assay
pIC50: −log10 of the molar value.
Entries and their pIC50 values follow.

- compound: "CC1(C)CC(=O)C2=C(NC3=C(CN=N3)[C@]23CC[C@@H](C(F)(F)F)CC3)[C@@H]1F"
  measured-on: "Glycogen synthase kinase-3 beta (Homo sapiens)"
  pIC50: "> 7.00"
- compound: "Cc1cnccc1[C@H]1CC[C@@]2(CC1)C1=C(N=NC1)NC1=C2C(=O)CC(C)(C)C1"
  measured-on: "Glycogen synthase kinase-3 beta (Homo sapiens)"
  pIC50: "> 7.00"
- compound: "CC[C@@]1(c2cccc(-c3c(F)cncc3OC)c2)C2=CN=NC2NC2=C1C(=O)CC(C)(C)[C@@H]2F (stereo partly drawn)"
  measured-on: "Glycogen synthase kinase-3 beta (Homo sapiens)"
  pIC50: "6.00 to 7.00"

###

measured-on: Glycogen synthase kinase-3 beta (Homo sapiens)
Entries and their IC50 values follow.

- compound: "CCC1(c2cccc(N3CCCCC3)c2)C2=C(CC(C)(C)CC2=O)NC2N=NC(C)=C21 (stereo not drawn)"
  IC50: "< 0.1 µM"
- compound: "CCC1(c2cccc(N3CCCC3)c2)C2=CN=NC2NC2=C1C(=O)CC(C)(C)C2 (stereo not drawn)"
  IC50: "0.1 to 1 µM"
- compound: "CCC1(CCc2ccccc2)C2=C(N=NC2)NC2=C1C(=O)CC(C)(C)C2 (stereo not drawn)"
  IC50: "> 5 µM"
- compound: "CC[C@]1(c2cccc(-c3cnn(C)c3)c2)C2=C(CC(C)(C)NC2=O)NC2N=NC(F)=C21 (stereo partly drawn)"
  IC50: "> 5 µM"
- compound: "CCC1(c2cccc(N(C)c3cccc(C)n3)c2)C2=CN=NC2NC2=C1C(=O)CC(C)(C)C2 (stereo not drawn)"
  IC50: "0.1 to 1 µM"
- compound: "CC[C@@]1(c2cccc(-c3cc(C)nn3C)c2)C2=CN=NC2NC2=C1C(=O)CC(C)(C)[C@@H]2F (stereo partly drawn)"
  IC50: "> 5 µM"
- compound: "CC[C@@]1(c2cccc(-c3ccncc3F)c2)C2=C(CC(C)(C)CC2=O)NC2N=NC(C(F)(F)F)=C21 (stereo partly drawn)"
  IC50: "0.1 to 1 µM"
- compound: "CC1(C)CC(=O)C2=C(C1)NC1=C(CN=N1)C21COC2(CN(C(=O)C3CC3)C2)C1 (stereo not drawn)"
  IC50: "< 0.1 µM"
- compound: "CC[C@@]1(c2cccc(N(C)c3cccc(OC)n3)c2)C2=CN=NC2NC2=C1C(=O)CC(C)(C)C2 (stereo partly drawn)"
  IC50: "0.1 to 1 µM"
- compound: "CC[C@@]1(c2cccc(C(F)(F)F)c2)C2=C(N=NC2)NC2=C1C(=O)N[C@H]2C"
  IC50: "> 5 µM"
- compound: "CC[C@@]1(c2cccc(-c3cn(C)nc3C3CC3)c2)C2=CN=NC2NC2=C1C(=O)NC(C)(C)C2 (stereo partly drawn)"
  IC50: "< 0.1 µM"
- compound: "CO[C@H]1CC[C@@]2(CC1)C1=C(N=NC1)NC1=C2C(=O)CC(C)(C)C1"
  IC50: "0.1 to 1 µM"
- compound: "CCc1cccc(C2(CC)C3=C(N=NC3)NC3=C2C(=O)CC(C)(C)C3)c1 (stereo not drawn)"
  IC50: "0.1 to 1 µM"
